Biological target: UniProt:P31421
Sequence (P31421 19-872): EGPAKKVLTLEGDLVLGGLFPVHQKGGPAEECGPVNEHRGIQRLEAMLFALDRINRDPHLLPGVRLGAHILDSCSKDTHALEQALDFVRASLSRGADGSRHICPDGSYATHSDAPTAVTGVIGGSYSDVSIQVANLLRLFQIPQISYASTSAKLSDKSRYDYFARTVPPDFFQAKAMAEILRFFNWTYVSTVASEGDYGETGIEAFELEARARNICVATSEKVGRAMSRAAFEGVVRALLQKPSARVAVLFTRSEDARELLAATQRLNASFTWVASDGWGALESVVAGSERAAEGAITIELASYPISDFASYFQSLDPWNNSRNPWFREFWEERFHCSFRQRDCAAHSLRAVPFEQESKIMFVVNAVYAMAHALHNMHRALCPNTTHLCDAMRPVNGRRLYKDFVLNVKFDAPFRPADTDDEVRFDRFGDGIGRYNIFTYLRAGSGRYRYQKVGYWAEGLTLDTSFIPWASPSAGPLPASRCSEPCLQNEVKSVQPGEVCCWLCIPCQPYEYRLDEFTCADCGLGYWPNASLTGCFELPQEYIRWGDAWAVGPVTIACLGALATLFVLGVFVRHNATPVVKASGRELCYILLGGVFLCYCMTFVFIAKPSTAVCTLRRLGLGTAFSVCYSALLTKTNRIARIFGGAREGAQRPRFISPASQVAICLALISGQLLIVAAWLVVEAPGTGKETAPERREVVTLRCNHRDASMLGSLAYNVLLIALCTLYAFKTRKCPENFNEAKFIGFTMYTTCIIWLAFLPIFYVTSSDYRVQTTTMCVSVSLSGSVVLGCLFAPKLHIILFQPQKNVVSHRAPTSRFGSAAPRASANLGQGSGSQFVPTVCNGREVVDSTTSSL
Assay: mGlu2 Ca2+ flux assay
Conditions: Gα15 HEK293 cells stably expressing rat mGlu2; glutamate EC80; >10,000 = no plateau; >30,000 = no measurable activity
Method: Gα15 HEK293 cells stably expressing rat mGlu2 were plated in black-walled, clear-bottomed, poly-D-lysine coated 384-well plates in 20 μL of assay medium (DMEM containing 10% dialyzed FBS, 20 mM HEPES, and 1 mM sodium pyruvate) at a density of 12K cells/well. […] Ca^2+ flux was measured using the Functional Drug Screening System (FDSS7000, Hamamatsu, Japan). […] Calcium fluorescence measures were recorded as fold over basal fluorescence; raw data was then normalized to the maximal response to glutamate. […]
READOUT_NAME: IC50 (µM)
Numbers only here, please. The scale is µM.

Value of measured IC50 for the entry Cn1cc(-c2cc(C(N)=O)ncc2OCc2cc(F)cc(F)c2)cn1 [Compound 80] : 4.13
